The entries below come with measured Activity values attached.
Measurement target: Estrogen receptor (Mus musculus) (UniProt O08537+P19785)
Sequence (O08537 whole entry, looked up): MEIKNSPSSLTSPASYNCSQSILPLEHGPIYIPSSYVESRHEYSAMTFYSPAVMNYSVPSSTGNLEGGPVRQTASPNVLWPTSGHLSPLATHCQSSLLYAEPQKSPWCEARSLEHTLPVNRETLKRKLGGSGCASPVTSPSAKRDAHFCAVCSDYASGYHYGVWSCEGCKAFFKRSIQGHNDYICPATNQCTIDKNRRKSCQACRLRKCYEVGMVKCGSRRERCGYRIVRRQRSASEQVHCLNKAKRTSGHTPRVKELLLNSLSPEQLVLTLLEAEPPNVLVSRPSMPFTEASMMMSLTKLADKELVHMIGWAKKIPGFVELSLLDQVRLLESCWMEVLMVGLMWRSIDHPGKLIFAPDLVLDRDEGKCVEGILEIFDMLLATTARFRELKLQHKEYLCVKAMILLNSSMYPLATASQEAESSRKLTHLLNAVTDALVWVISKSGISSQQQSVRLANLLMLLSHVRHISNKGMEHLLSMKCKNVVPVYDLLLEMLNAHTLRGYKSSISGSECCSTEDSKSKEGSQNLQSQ
Sequence (P19785 whole entry, looked up): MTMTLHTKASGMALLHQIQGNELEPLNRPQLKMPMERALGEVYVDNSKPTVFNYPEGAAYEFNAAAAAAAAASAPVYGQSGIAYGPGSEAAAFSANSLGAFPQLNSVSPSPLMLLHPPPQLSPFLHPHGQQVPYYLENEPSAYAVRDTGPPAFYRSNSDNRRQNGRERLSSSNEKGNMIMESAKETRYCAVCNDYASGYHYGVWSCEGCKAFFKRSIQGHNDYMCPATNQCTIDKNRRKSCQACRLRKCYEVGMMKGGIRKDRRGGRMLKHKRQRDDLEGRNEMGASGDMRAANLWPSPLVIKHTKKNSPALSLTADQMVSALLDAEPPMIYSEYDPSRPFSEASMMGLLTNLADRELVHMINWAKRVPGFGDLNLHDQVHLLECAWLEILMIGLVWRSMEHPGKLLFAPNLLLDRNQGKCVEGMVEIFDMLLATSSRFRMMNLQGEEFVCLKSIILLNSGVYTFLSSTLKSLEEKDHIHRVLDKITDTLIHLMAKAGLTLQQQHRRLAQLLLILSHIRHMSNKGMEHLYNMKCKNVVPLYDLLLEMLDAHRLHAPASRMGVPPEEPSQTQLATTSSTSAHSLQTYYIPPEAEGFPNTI
Procedure details: Anti-estrogenic activity in mouse uterotrophic assay at 0 ug
Format: functional
Parameters: unit not given here
Write no unit; give the number alone.

Recorded results for 6 compounds are shown here.
Quick note, Activity for CCC(c1cc(O)ccc1Cl)C(CC)c1cc(O)ccc1Cl (configuration not stated) landed at 13.7

# compound CCC(c1cccc(O)c1)C(CC)c1cccc(O)c1 (configuration not stated) ; its Activity = 12.5

Entry under test: CCC(c1ccc(F)c(O)c1)C(CC)c1ccc(F)c(O)c1 (configuration not stated) . Its Activity was 13.5

So, CCC(c1ccc(N)c(O)c1)C(CC)c1ccc(N)c(O)c1 (configuration not stated) ? Its Activity was 14.8

Looking up CCC(c1cc(O)ccc1C)C(CC)c1cc(O)ccc1C (configuration not stated) , I found its Activity recorded as 13.7

Note to self: Activity recorded for CCC(c1ccc(C)c(O)c1)C(CC)c1ccc(C)c(O)c1 (configuration not stated) was 14.8

More entries:
Notebook: CCC(c1cc(O)ccc1F)C(CC)c1cc(O)ccc1F (configuration not stated) , Activity read as 13.7

====

Measurement target: Estrogen receptor (Bos taurus) (UniProt Q9XSB5+P49884)
Procedure details: Relative binding affinity for calf uterine estrogen receptor is the ratio of molar concentrations of 17-beta-estradiol and compound required to decrease amount of bound [3H]-E2 by 50% X 100.
Type: protein assay
RBA: recorded values
Please reply with the value in numeric form only.

Use the examples below as a reference point.
compound CCC(c1ccc(O)c(CO)c1)C(CC)c1ccc(O)c(CO)c1 (stereo unspecified) , RBA observed: 0.71

Measured RBA, CCC(c1ccc(F)c(O)c1)C(CC)c1ccc(F)c(O)c1 (stereo unspecified) : 1.1

Reported RBA for CCc1ccc(C(CC)C(CC)c2ccc(CC)c(O)c2)cc1O (stereo unspecified) was 0.04

Entry under test: CCC(c1ccc([N+](=O)[O-])c(O)c1)C(CC)c1ccc([N+](=O)[O-])c(O)c1 (stereo unspecified) . Its RBA was 0.02

Next:
Lab note: measured RBA of CCC(c1cc(O)ccc1C)C(CC)c1cc(O)ccc1C (stereo unspecified) was 15

====

RBA listing for selected compounds.
Measurement target: Estrogen receptor (Bos taurus) (UniProt Q9XSB5+P49884)
Procedure details: Relative binding affinity for calf uterine estrogen receptor is the ratio of molar concentrations of 17-beta-estradiol and compound required to decrease amount of bound [3H]-E2 by 50% X 100.
Type: protein assay
API note: the answer field is a bare number with no unit suffix.

Summary: CCC(c1cc(O)ccc1Cl)C(CC)c1cc(O)ccc1Cl (centres undefined) , Estrogen receptor (Bos taurus) (UniProt Q9XSB5+P49884), RBA = 4.2

Summary line: CCc1cc(C(CC)C(CC)c2ccc(O)c(CC)c2)ccc1O (centres undefined) , Estrogen receptor (Bos taurus) (UniProt Q9XSB5+P49884), reported RBA = 1.2

The measured RBA that CCC(c1cc(O)ccc1F)C(CC)c1cc(O)ccc1F (centres undefined) showed for Estrogen receptor (Bos taurus) (UniProt Q9XSB5+P49884) is 7

Further cases:
The measured RBA that CCC(c1ccc(O)c(F)c1)C(CC)c1ccc(O)c(F)c1 (centres undefined) showed for Estrogen receptor (Bos taurus) (UniProt Q9XSB5+P49884) is 16

CCC(c1ccc(O)cc1C)C(CC)c1ccc(O)cc1C (centres undefined) tested on Estrogen receptor (Bos taurus) (UniProt Q9XSB5+P49884) gave RBA: 8.5

Param item: "CC[C@H](c1ccc(O)cc1)[C@@H](CC)c1ccc(O)cc1" ; param system: Estrogen receptor (Bos taurus) (UniProt Q9XSB5+P49884); output RBA: 27

Considering CCC(c1ccc(O)c(COC)c1)C(CC)c1ccc(O)c(COC)c1 (centres undefined) , its RBA with Estrogen receptor (Bos taurus) (UniProt Q9XSB5+P49884) was recorded as 0.55

Let me check: CCC(c1ccc(O)c(I)c1)C(CC)c1ccc(O)c(I)c1 (centres undefined) , system Estrogen receptor (Bos taurus) (UniProt Q9XSB5+P49884), measured RBA is 0.17

Summary: CCC(c1ccc(O)cc1O)C(CC)c1ccc(O)cc1O (centres undefined) , Estrogen receptor (Bos taurus) (UniProt Q9XSB5+P49884), RBA = 32

Hey, Estrogen receptor (Bos taurus) (UniProt Q9XSB5+P49884) data for CCC(c1ccc(Cl)c(O)c1)C(CC)c1ccc(Cl)c(O)c1 (centres undefined) : RBA came out at 0.07

Measured on Estrogen receptor (Bos taurus) (UniProt Q9XSB5+P49884), CCC(c1cc(O)cc(Cl)c1)C(CC)c1cc(O)cc(Cl)c1 (centres undefined) has a documented RBA of 0.03

Entry CCC(c1ccc(Br)c(O)c1)C(CC)c1ccc(Br)c(O)c1 (centres undefined) under Estrogen receptor (Bos taurus) (UniProt Q9XSB5+P49884) had RBA of 0.03

Query CCC(c1cc(O)cc(O)c1)C(CC)c1cc(O)cc(O)c1 (centres undefined) on Estrogen receptor (Bos taurus) (UniProt Q9XSB5+P49884); RBA returned: 0.01

Entry CCC(c1ccc(O)c(C)c1)C(CC)c1ccc(O)c(C)c1 (centres undefined) ; assay system Estrogen receptor (Bos taurus) (UniProt Q9XSB5+P49884); RBA recorded at 8.1

The compound CCC(c1cccc(O)c1)C(CC)c1cccc(O)c1 (centres undefined) on Estrogen receptor (Bos taurus) (UniProt Q9XSB5+P49884): RBA was 10

Recorded RBA for CCC(c1ccc(COC)c(O)c1)C(CC)c1ccc(COC)c(O)c1 (centres undefined) on Estrogen receptor (Bos taurus) (UniProt Q9XSB5+P49884) was 0.03

CCC(c1ccc(CO)c(O)c1)C(CC)c1ccc(CO)c(O)c1 (centres undefined) tested on Estrogen receptor (Bos taurus) (UniProt Q9XSB5+P49884) gave RBA: 0.03

Tested on Estrogen receptor (Bos taurus) (UniProt Q9XSB5+P49884): CCC(c1ccc(O)c([N+](=O)[O-])c1)C(CC)c1ccc(O)c([N+](=O)[O-])c1 (centres undefined) . Observed RBA: 0.14

RBA value, target or system Estrogen receptor (Bos taurus) (UniProt Q9XSB5+P49884), for CCOCc1cc(C(CC)C(CC)c2ccc(O)c(COCC)c2)ccc1O (centres undefined) : 0.18

====

Measurement target: Estrogen receptor (Mus musculus) (UniProt O08537+P19785)
Procedure details: Anti-estrogenic activity in mouse uterotrophic assay at 10 ug
Assay type: functional
Parameters: unit not given here
Measure: Activity
A bare number is all that is needed in reply.

The measured Activity associated with CCC(c1ccc(N)c(O)c1)C(CC)c1ccc(N)c(O)c1 (stereo not given) reads 41.7

What the record says about CCC(c1cc(O)ccc1C)C(CC)c1cc(O)ccc1C (stereo not given) : Activity is 25.4

Entry under test: CCC(c1cc(O)ccc1F)C(CC)c1cc(O)ccc1F (stereo not given) . Its Activity was 38.9

Documented Activity of CCC(c1cc(O)ccc1Cl)C(CC)c1cc(O)ccc1Cl (stereo not given) : 41

CCC(c1ccc(C)c(O)c1)C(CC)c1ccc(C)c(O)c1 (stereo not given) has a reported Activity of 39.6

====

Measurement target: Estrogen receptor (Bos taurus) (UniProt Q9XSB5+P49884)
Procedure details: Relative binding affinity for calf uterine estrogen receptor is the ratio of molar concentrations of 17-beta-estradiol and compound required to decrease amount of bound [3H]-E2 by 50% X 100.
Assay type: protein assay
# RBA annotations

See these solved cases before continuing.
Input CCC(c1ccc(O)cc1F)C(CC)c1ccc(O)cc1F (stereo not given) . Output RBA: 6.5

For CCC(c1ccc(O)c(Cl)c1)C(CC)c1ccc(O)c(Cl)c1 (stereo not given) the molecule record lists RBA as 1.6

Field RBA (entry CCOCc1ccc(C(CC)C(CC)c2ccc(COCC)c(O)c2)cc1O (stereo not given) ) reads < 0.01

RBA reported for this molecule CCC(c1ccc(C(C)=O)c(O)c1)C(CC)c1ccc(C(C)=O)c(O)c1 (stereo not given) : < 0.01

Given item CCC(c1ccc(O)cc1Cl)C(CC)c1ccc(O)cc1Cl (stereo not given) , the value recorded as its RBA is 2.2

Continuing:
Item: CCC(c1ccc(O)c(Br)c1)C(CC)c1ccc(O)c(Br)c1 (stereo not given) | RBA: 0.25

Form field RBA, entry CCC(c1ccc(C)c(O)c1)C(CC)c1ccc(C)c(O)c1 (stereo not given) : 0.73

Data point: CCC(c1ccc(N)c(O)c1)C(CC)c1ccc(N)c(O)c1 (stereo not given) ; RBA = 0.52

Entry CCC(c1ccc(O)c(CN(C)C)c1)C(CC)c1ccc(O)c(CN(C)C)c1 (stereo not given) — recorded RBA = 0.04

// RBA lookup, molecule = CCC(c1ccc(O)c(N)c1)C(CC)c1ccc(O)c(N)c1 (stereo not given) , result: 5.6
